Experiment: Confirmatory fluorescence-based thiol-reactive (MSTI) qHTS assay for identification of artifact compounds
Conditions: MSTI thiol-reactivity probe, 1 h; series mostly up to 39.2 µM
Excerpt: PI: Alexander Tropsha Ph.D. UNC Eshelman School of Pharmacy University of North Carolina, Chapel Hill, North Carolina Hits from high-throughput screening (HTS) of chemical libraries are often false positives due to their interference with the assay detection technology. […] Using these curated datasets, we developed and validated several Quantitative Structure-Interference Relationship (QSIR) models to predict nuisance behavior. […]
Inconclusive results are not listed. Activity calls are given as the source filed them. Calls follow the shape of the dose curve; as a rule, active = well fitted inhibition curve with a large enough effect; inconclusive = small, poorly fitted or top-dose-only effect; inactive = no such curve, though single readings can be large or run the other way.
Could you please pick one outcome from this set? active, inactive

1. Fc1ccc(-c2cc(-c3ccc(F)cc3)c3c(n2)-c2cc(F)ccc2OC3)cc1 :: inactive
2. CCOC(=O)C1CCN(c2nc3ccccc3nc2Cl)CC1 :: inactive

Please examine the following record next.
Look up the recorded call for O=C(NCc1ccccc1)C1(C(F)(F)F)C/C(=C\CCO)CCCO1 (stereo not given) in this test. inactive
